Can you tell me fold decreased thallium flux apparent potency compared to MDE3-119-10c for the items I'm about to list?
Molecular target: hMC4R-Kir7.1(M125R) (Homo sapiens, UniProt P32245)
Construct: expressed in transfected cells; Kir7.1 tetracycline-induced)
Sequence (P32245 whole entry, stated change not applied): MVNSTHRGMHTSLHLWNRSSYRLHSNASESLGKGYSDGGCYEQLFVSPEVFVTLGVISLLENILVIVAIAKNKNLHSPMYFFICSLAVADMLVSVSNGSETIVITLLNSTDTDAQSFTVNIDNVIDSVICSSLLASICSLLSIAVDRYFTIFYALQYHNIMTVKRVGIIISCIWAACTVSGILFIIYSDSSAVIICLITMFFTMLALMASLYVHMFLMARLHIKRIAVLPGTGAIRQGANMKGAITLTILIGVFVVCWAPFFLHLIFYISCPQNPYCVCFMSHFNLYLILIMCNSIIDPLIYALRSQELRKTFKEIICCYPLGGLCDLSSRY
Assay: Kir7.1 thallium flux assay, HEK293 cells expressing human MC4R and Kir7.1 (M125R)
Assay type: cell-based
Could you give me the number in fold? Just the number is fine.

Look at this substance and give its reported fold decreased thallium flux apparent potency compared to MDE3-119-10c. c[Pro-Arg-Phe-Phe-Abu-Ala-Phe-DPro] [Peptide 4 (Example 1)]
5

Look at this substance and give its reported fold decreased thallium flux apparent potency compared to MDE3-119-10c. c[Pro-Arg-Phe-Phe-DDap-Ala-Phe-DPro] [Peptide 9 (Example 1)]
80

Look at this substance and give its reported fold decreased thallium flux apparent potency compared to MDE3-119-10c. c[Pro-Arg-Phe-Phe-Dap-Ala-Phe-DPro] [Peptide 2 (Example 1)]
28

Look at this substance and give its reported fold decreased thallium flux apparent potency compared to MDE3-119-10c. c[Pro-Arg-Phe-Phe-Asp-Ala-Phe-DPro] [Peptide 7 (Example 1)]
2

###

Target: MC4R (Homo sapiens, UniProt P32245)
Sequence (P32245 whole entry): as the sequence (P32245 whole entry, stated change not applied) above
Assay: Competitive radioligand binding, displacement of 125I-NDP-MSH, HEK293 cells expressing hMC4R
Design: expressed in transfected cells
Conditions: displacement of 125I-NDP-MSH
Use Fulfilled when the recorded fold decreased binding affinity compared to NDP-MSH is no lower than 20 fold; use Not fulfilled when it is lower.

Is fold decreased binding affinity compared to NDP-MSH at least 20 fold? Consider c[Pro-Arg-Phe-Phe-Asp-Ala-Phe-DPro] [Peptide 7 (Example 1)]
Fulfilled

Is fold decreased binding affinity compared to NDP-MSH at least 20 fold? Consider c[Pro-Arg-Phe-Phe-His-Ala-Phe-DPro] [Peptide 10 (Example 1)]
Not fulfilled

Is fold decreased binding affinity compared to NDP-MSH at least 20 fold? Consider c[Pro-Arg-Phe-Phe-Glu-Ala-Phe-DPro] [Peptide 8 (Example 1)]
Fulfilled

Is fold decreased binding affinity compared to NDP-MSH at least 20 fold? Consider c[Pro-Arg-Phe-Phe-Val-Ala-Phe-DPro] [Peptide 13 (Example 1)]
Fulfilled

###

Can you tell me EC50 for the items I'm about to list?
Target: mMC5R (Mus musculus, UniProt P41149)
Construct: expressed in transfected cells
Sequence (P41149 whole entry): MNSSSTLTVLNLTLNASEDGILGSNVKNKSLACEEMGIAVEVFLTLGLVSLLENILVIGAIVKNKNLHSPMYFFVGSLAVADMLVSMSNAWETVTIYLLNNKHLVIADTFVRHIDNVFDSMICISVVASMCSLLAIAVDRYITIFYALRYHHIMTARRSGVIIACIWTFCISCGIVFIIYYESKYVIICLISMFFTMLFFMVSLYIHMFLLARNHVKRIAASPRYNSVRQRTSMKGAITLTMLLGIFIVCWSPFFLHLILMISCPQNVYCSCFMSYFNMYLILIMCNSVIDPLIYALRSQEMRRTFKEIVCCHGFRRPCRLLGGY
Test: AlphaScreen cAMP assay, agonist and inverse agonist activity, HEK293 cells stably expressing mMC5R
Type: cell-based
Settings: Table 6; apparent potency at inflection point
Could you give me the number in nM? Just the number is fine.

Record c[Pro-Arg-Phe-Phe-Asn-Ala-hPhe-DPro] [Compound 11 (Example 3)] : what is its EC50 with mMC5R (Mus musculus, UniProt P41149)?
290

Record c[Pro-Arg-Phe-Phe-Asn-Ala-Trp-DPro] [Compound 8 (Example 3)] : what is its EC50 with mMC5R (Mus musculus, UniProt P41149)?
150

Record c[Pro-Arg-Phe-Phe-Asn-Ala-Cha-DPro] [Compound 10 (Example 3)] : what is its EC50 with mMC5R (Mus musculus, UniProt P41149)?
780
